Form field: Pseudo Neut, B1.1.7 IC50 (pM) (one value per entry).
- experimental-system: SARS-CoV-2 spike protein, B1.1.7 (alpha variant), borne on lentiviral pseudovirus (SARS-CoV-2, B1.1.7)
- test-method-notes: cell-based or functional assay

{"columns": ["binder", "Pseudo Neut, B1.1.7 IC50 (pM)"],
 "data": [
  ["antibody 2050 (antibody, V domains shown) VH: QVQLVQSGAEVKKPGASVKVPCKVSGYTFTDHFIHWVRQAPGQGLEWMGWISPNSGGRNYTQKFQGRVTLTRDTAITTVHMDLSSLTPDDTAVYYCARDVRWAQLQGGFDLWGQGTMVTVSS VL: QSALTQPASVSGSPGQSITISCTGTSSDVGSYNLVSWYQQHPGKAPKLMIYEVSKRPSGVSNRFSGSKSGNTASLTISGLQADDEADYYCCSYAGDNNFLFGGGTSLTVL", 200],
  ["antibody 4042 (antibody, V domains shown) VH: QITLKESGPTLVKPTQTLTLTCTFSGFSLSSGGVGVGWIRQPPGKALEWLALIYWDDDKRYRPSLKSRLTITRDTSTNQVVLTMTNMDPVDTATYFCARHQIATVFDHWGQGTLVTVSS VL: QSALTQPASVSGSPGQSITISCTGTSSDVGGYNYVSWYQQHPGKAPKLMIYEVSNRPSGVSSRFSGSKSGNTASLTISGLQAEDEADYYCSSYTRSSPLVAFGGGTKVTVL", 200]
]}
